# target-under-test: T1, recombinant biotinylated CD71 extracellular domain (Sino Biologics) with an N-terminal 6His tag (human, UniProt P02786 89-760, biotinylated (sites not given))
# T1 construct: extracellular domain; also called hCD71; huCD71
# T1 sequence (P02786 other isoform, or with tags, fused parts or gaps): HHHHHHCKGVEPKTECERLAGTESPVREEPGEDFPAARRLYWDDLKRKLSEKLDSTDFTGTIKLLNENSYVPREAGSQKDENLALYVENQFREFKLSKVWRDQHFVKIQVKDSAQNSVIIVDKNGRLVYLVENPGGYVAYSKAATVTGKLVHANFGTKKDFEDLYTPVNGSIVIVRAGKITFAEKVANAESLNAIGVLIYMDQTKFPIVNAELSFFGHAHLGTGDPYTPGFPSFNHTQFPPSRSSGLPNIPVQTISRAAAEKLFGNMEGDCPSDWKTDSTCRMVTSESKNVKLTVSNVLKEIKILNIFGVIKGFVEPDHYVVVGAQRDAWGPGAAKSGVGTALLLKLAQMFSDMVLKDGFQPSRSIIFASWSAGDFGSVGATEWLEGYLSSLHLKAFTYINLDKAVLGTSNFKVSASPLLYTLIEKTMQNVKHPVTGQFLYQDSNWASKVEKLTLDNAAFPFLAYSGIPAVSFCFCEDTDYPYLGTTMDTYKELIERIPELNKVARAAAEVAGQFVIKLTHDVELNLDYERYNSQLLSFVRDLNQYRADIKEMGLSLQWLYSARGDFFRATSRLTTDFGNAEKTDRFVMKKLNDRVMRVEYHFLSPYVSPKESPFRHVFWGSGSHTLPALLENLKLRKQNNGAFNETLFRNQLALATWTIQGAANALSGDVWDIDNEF
# protocol-text: screening ELISA
outcome-measure: hCD71

Below, each entry is followed by its recorded hCD71 result.
{"columns": ["binder", "hCD71"],
 "data": [
  ["SEQ ID NO 131 (designed binder, FN3 domain) MLPAPKNLVVSRVTEDSARLSWTAPDAAFDSFSIDYYEGKGYGEAIVLTVPGSERSYDLTGLKPGTEYQVLISGVKGGKYSLPLSAIFTT", "2.18e+06"],
  ["SEQ ID NO 104 (designed binder, FN3 domain) MLPAPKNLVVSHVTEDSARLSWTAPDAAFDSFDIEYYELVGSGEAIVLTVPGSERSYDLTGLKPGTEYYVAIYGVKGGYLSRPLSAIFTT", "3.58e+06"]
]}

1: SEQ ID NO 301 (designed binder, FN3 domain) MLPAPKNLVVSRVTEDSARLSWTAPDAAFDSFEIEYDEPYRGGEAIVLTVPGSERSYDLTSLKPGTEYPVSIGGVKGGITSDPLSAIFTT
2: SEQ ID NO 240 (designed binder, FN3 domain) MLPAPKNLVVSRVTEDSARLSWTAPDAAFDSFRIKYLEWWLGGEAIVLTVPGSERSYDLTGLKPGTEYWVDIQGVKGGVLSWPLSAIFTT
Lab note: check whether 1 or 2 shows the higher recorded hCD71. // return label of chosen record 2
(2: 3.03e+06, 1: 660000)
